- target: human cannabinoid CB1 receptor (Homo sapiens)
- Construct: expressed in transfected cells; host or cells: Chinese hamster ovary (CHO) cells, stably transfected; membrane preparations
- assay_comment: CB1 receptor affinity, [3H]CP-55,940 radioligand displacement on CHO cell membrane preparations
- Type: binding
- test_context: read-out: CB1 IC50
pIC50: −log10 of the molar value.
pIC50 values, listed per item
readout_kind: pIC50

INSERT INTO measurements (compound, result) VALUES
  ('NS(=O)(=O)CCNC(=O)C(CO)NC(=NS(=O)(=O)c1ccc(Cl)cc1)N1CC(c2ccccc2)C(c2ccc(Cl)cc2)=N1 (stereo not shown) [compound 26]', '> 7.00'),
  ('N#Cc1cccc(S(=O)(=O)N=C(NC2(C(N)=O)CCC2)N2CC(c3ccccc3)C(c3ccc(Cl)cc3)=N2)c1 (stereo not shown) [compound 17]', '> 7.00'),
  ('CC(C)C(NC(=NS(=O)(=O)c1cccc(C(=N)N)c1)N1CC(c2ccccc2)C(c2ccc(Cl)cc2)=N1)C(N)=O (stereo not shown) [compound 9]', '6.00 to 7.00'),
  ('NS(=O)(=O)CCNC(=NS(=O)(=O)c1ccc(Cl)cc1)N1CC(c2ccccc2)C(c2ccc(Cl)cc2)=N1 (stereo not shown) [compound 3]', '> 7.00');

---

- target: human cannabinoid CB1 receptor (Homo sapiens)
- Construct: expressed in transfected cells; host or cells: Chinese hamster ovary (CHO) cells, stably transfected; membrane preparations
- assay_comment: CB1 receptor affinity, [3H]CP-55,940 radioligand displacement on CHO cell membrane preparations
- Assay type: binding
readout_kind: IC50

INSERT INTO measurements (compound, result) VALUES
  ('CCOP(=O)(OCC)C(C)NC(=NS(=O)(=O)c1ccc(Cl)cc1)N1CC(c2ccccc2)C(c2ccc(Cl)cc2)=N1 (stereo not shown)', '1 to 10 µM');

---

- target: human cannabinoid CB1 receptor (Homo sapiens)
- Construct: expressed in transfected cells; host or cells: Chinese hamster ovary (CHO) cells, stably transfected; membrane preparations
- assay_comment: CB1 receptor affinity, [3H]CP-55,940 radioligand displacement on CHO cell membrane preparations
- Format: binding
- test_context: read-out: CB1 IC50
IC50 values, listed per item
readout_kind: IC50

INSERT INTO results (compound, target, result) VALUES
  ('NC(=O)Cc1csc(NC(=NS(=O)(=O)c2ccc(Cl)cc2)N2CC(c3ccccc3)C(c3ccc(Cl)cc3)=N2)n1 (stereo not shown) [compound 27]', 'human cannabinoid CB1 receptor (Homo sapiens)', '1000 to 10000 nM'),
  ('NC(=O)C(CO)NC(=NS(=O)(=O)c1ccc(Cl)cc1)N1CC(c2ccccc2)C(c2ccc(Cl)cc2)=N1 (stereo not shown) [compound 2]', 'human cannabinoid CB1 receptor (Homo sapiens)', '< 100 nM'),
  ('COc1cccc(S(=O)(=O)N=C(NCCS(N)(=O)=O)N2CC(c3ccccc3)C(c3ccc(Cl)cc3)=N2)c1 (stereo not shown) [compound 14]', 'human cannabinoid CB1 receptor (Homo sapiens)', '< 100 nM'),
  ('CC(O)C(NC(=NS(=O)(=O)c1ccc(Cl)cc1)N1CC(c2ccccc2)C(c2ccc(Cl)cc2)=N1)C(=O)NCCS(N)(=O)=O (stereo not shown) [compound 25]', 'human cannabinoid CB1 receptor (Homo sapiens)', '< 100 nM');

---

IC50 values, listed per item
- target: human cannabinoid CB1 receptor (Homo sapiens, UniProt P21554)
- Construct: expressed in transfected cells; host or cells: Chinese hamster ovary (CHO) cells, stably transfected; membrane preparations
- Sequence (P21554 whole entry): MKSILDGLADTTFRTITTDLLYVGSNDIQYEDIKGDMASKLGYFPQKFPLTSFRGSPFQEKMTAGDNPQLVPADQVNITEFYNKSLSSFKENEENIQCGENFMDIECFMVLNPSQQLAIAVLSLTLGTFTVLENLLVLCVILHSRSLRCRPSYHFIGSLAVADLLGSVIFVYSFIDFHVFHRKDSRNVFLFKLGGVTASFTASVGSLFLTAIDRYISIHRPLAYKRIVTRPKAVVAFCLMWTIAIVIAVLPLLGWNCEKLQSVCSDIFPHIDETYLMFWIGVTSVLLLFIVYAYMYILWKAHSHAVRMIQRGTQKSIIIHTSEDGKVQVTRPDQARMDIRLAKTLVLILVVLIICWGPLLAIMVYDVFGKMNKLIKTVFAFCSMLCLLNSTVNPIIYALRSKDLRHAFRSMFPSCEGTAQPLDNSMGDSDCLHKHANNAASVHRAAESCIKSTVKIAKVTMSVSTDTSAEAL
- assay_comment: CB1 receptor affinity, [3H]CP-55,940 radioligand displacement on CHO cell membrane preparations
- Type: binding
- test_context: read-out: CB1 IC50
readout_kind: IC50

INSERT INTO assay_data (compound, result) VALUES
  ('NC(CCNC(=NS(=O)(=O)c1ccc(Cl)cc1)N1CC(c2ccccc2)C(c2ccc(Cl)cc2)=N1)=NO (stereo not shown)', '< 100 nM'),
  ('CC(C)C(NC(=NS(=O)(=O)c1cccc(C(N)=O)c1)N1CC(c2ccccc2)C(c2ccc(Cl)cc2)=N1)C(N)=O (stereo not shown)', '100 to 1000 nM'),
  ('COc1ccc(C2=NN(C(=NS(=O)(=O)c3ccc(Cl)cc3)NCCS(N)(=O)=O)CC2c2ccccc2)cc1 (stereo not shown)', '< 100 nM'),
  ('CC(O)C(NC(=NS(=O)(=O)c1cccc(C#N)c1)N1CC(c2ccccc2)C(c2ccc(Cl)cc2)=N1)C(N)=O (stereo not shown)', '< 100 nM'),
  ('CC(C)C(NC(=NS(=O)(=O)c1cccc(C#N)c1)N1CC(c2ccccc2)C(c2ccc(Cl)cc2)=N1)C(N)=O (stereo not shown)', '< 100 nM'),
  ('COc1cccc(S(=O)(=O)N=C(NC(C(N)=O)C2CC2)N2CC(c3ccccc3)C(c3ccc(Cl)cc3)=N2)c1 (stereo not shown)', '100 to 1000 nM'),
  ('COC(=O)C=CCNC(=NS(=O)(=O)c1ccc(Cl)cc1)N1CC(c2ccccc2)C(c2ccc(Cl)cc2)=N1 (stereo not shown)', '< 100 nM');

---

pIC50 values, listed per item
- target: human cannabinoid CB1 receptor (Homo sapiens, UniProt P21554)
- Construct: expressed in transfected cells; host or cells: Chinese hamster ovary (CHO) cells, stably transfected; membrane preparations
- assay_comment: CB1 receptor affinity, [3H]CP-55,940 radioligand displacement on CHO cell membrane preparations
- Type: binding
- test_context: read-out: CB1 IC50
- Procedure: CB1 receptor affinities can be determined using membrane preparations of Chinese hamster ovary (CHO) cells in which the human cannabinoid CB1 receptor is stably transfected (Biochem J. 1991, 279, 129-134) in conjunction with [3H]CP-55,940 as radioligand. […] Radioactivity on the filter is measured by liquid scintillation counting. The IC50 values can be determined from at least three independent measurements. […]
pIC50: −log10 of the molar value.
readout_kind: pIC50

INSERT INTO measurements (molecule, result) VALUES
  ('NS(=O)(=O)CCNC(=O)CNC(=NS(=O)(=O)c1ccc(Cl)cc1)N1CC(c2ccccc2)C(c2ccc(Cl)cc2)=N1 (centres unmarked)', '> 7.00'),
  ('COc1cccc(S(=O)(=O)N=C(NC2(C(N)=O)CCC2)N2CC(c3ccccc3)C(c3ccc(Cl)cc3)=N2)c1 (centres unmarked)', '> 7.00'),
  ('CC(NC(=NS(=O)(=O)c1cccc(C#N)c1)N1CC(c2ccccc2)C(c2ccc(Cl)cc2)=N1)C(N)=O (centres unmarked)', '> 7.00'),
  ('N#Cc1cccc(S(=O)(=O)N=C(NC(C(N)=O)C2CCC2)N2CC(c3ccccc3)C(c3ccc(Cl)cc3)=N2)c1 (centres unmarked)', '> 7.00'),
  ('COc1ccc(C2=NN(C(=NS(=O)(=O)c3ccc(Cl)cc3)NC(C)C(N)=O)CC2c2ccccc2)cc1 (centres unmarked)', '> 7.00'),
  ('NC(CNC(=NS(=O)(=O)c1ccc(Cl)cc1)N1CC(c2ccccc2)C(c2ccc(Cl)cc2)=N1)=NO (centres unmarked)', '> 7.00'),
  ('CC(O)C(NC(=NS(=O)(=O)c1ccc(Cl)cc1)N1CC(c2ccccc2)C(c2ccc(Cl)cc2)=N1)C(=O)NC(CO)C(N)=O (centres unmarked)', '> 7.00'),
  ('CC(O)C(NC(=NS(=O)(=O)c1cccc(C(=N)N)c1)N1CC(c2ccccc2)C(c2ccc(Cl)cc2)=N1)C(N)=O (centres unmarked)', '> 7.00'),
  ('CC(O)C(NC(=NS(=O)(=O)c1ccc(Cl)cc1)N1CC(c2ccccc2)C(c2ccc(Cl)cc2)=N1)C(N)=O (centres unmarked)', '> 7.00'),
  ('COc1cccc(S(=O)(=O)N=C(NC(C)C(N)=O)N2CC(c3ccccc3)C(c3ccc(Cl)cc3)=N2)c1 (centres unmarked)', '> 7.00'),
  ('N#Cc1cccc(S(=O)(=O)N=C(NCCS(N)(=O)=O)N2CC(c3ccccc3)C(c3ccc(Cl)cc3)=N2)c1 (centres unmarked)', '> 7.00');
